testedTarget: T1, RecF (Escherichia coli, UniProt P0A7H0 1-357)
T1 sequence: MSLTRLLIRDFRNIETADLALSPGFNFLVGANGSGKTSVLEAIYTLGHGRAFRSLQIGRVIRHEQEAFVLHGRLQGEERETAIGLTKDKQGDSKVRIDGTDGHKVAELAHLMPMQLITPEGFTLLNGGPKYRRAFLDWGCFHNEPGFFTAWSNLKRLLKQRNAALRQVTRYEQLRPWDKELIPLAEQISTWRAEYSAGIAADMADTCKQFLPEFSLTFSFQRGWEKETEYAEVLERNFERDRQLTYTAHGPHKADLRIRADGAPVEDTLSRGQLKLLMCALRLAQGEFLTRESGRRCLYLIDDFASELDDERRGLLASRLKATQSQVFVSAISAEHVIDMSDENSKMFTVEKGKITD
testMethodNotes: fluorescence anisotropy; 3 mM ATP; 30 mM Tris-Cl pH 7.5, 100 mM NaCl, 10 mM MgCl2, 0.1 mM EDTA, 1 mM DTT, 30% glycerol, 0.1 mg/ml BSA, 10 nM DNA, 25 C; 3 mM ATP and 5 uM RecR where indicated
experimentalSetup: protein: recombinant; chain copies: 2; label: 5' FAM
measuredEndpoint: Kd
Express your answer as a number followed by its unit.

# input binder: TTTTTTTTTTTTTTTTTTTTTTTTTTTTTTT (ssDNA) [31 polydT ssDNA 5FAM] ; wanted: its Kd
93 nM
